Tested on: HL60 cells
Experiment: Standalone cytotoxicity, WST-1 colorimetric assay, HL60
Type: cell-based
Details: Homo sapiens, HL-60; HL60, 48 hrs
IC50: recorded values

MOLECULE	IC50 / nM
CC[C@H](N)C(=O)N[C@@H]1C(=O)N2[C@@H](CC[C@@H]1CN=[N+]=[N-])CC[C@H]2C(=O)NC(c1ccccc1)c1ccccc1 [Compound 25a]	3320
CC[C@H](N)C(=O)N[C@@H]1C(=O)N2[C@@H](CC[C@@H]1COC(C)=O)CC[C@H]2C(=O)NC(c1ccccc1)c1ccccc1 [Compound 30a]	1790

----------
Molecular target: human XIAP linker-BIR2-BIR3 (Homo sapiens)
Construct: human XIAP from residue 124 to 356 (linker-BIR2-BIR3)
Sequence (P98170 124-356): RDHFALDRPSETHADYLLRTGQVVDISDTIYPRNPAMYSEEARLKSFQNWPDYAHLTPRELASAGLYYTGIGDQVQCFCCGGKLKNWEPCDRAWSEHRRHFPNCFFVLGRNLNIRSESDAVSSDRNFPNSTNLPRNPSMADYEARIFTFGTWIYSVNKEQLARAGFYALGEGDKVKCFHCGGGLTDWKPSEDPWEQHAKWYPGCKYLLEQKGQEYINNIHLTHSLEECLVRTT
Experiment: Fluorescence polarization competitive binding, displacement of SMAC-1F probe from XIAP linker-BIR2-BIR3-His-tag
Settings: XIAP linker-BIR2-BIR3, average of three independent measurements
QUANTITY_KIND: IC50

COMPOUND	ASSAY_RESULT
CC[C@H](N)C(=O)N[C@@H]1C(=O)N2[C@@H](CC[C@@H]1CCN)CC[C@H]2C(=O)NC(c1ccccc1)c1ccccc1 [Compound 38a]	85 nM
